- System: Huh-7
- protocol summary: Cytotoxic activity against human HuH7 cells
- Type: functional, cell-based
- details: Homo sapiens, Huh-7; read-out: IC50
pIC50: −log10 of the molar value.
readout: pIC50

molecule	readout	numeric readout
CC(=O)OCCOC(=O)[C@@H](CS[C@H]1CCC[C@H](C)OC(=O)Cc2cc(O)cc(O)c2C(=O)C1)OC(C)=O	pIC50	5.26
C[C@H]1CCC/C=C/C(=O)c2c(O)cc(O)cc2CC(=O)O1 [DEHYDROCURVULARIN]	pIC50	5.30
COC(=O)[C@H](O)CS[C@H]1CCC[C@H](C)OC(=O)Cc2cc(O)cc(O)c2C(=O)C1	pIC50	5.41
C[C@H]1CCC[C@H](SC[C@@H](O)C(=O)O)CC(=O)c2c(O)cc(O)cc2CC(=O)O1	pIC50	5.29
